- TARGET_UNDER_TEST: 5-HT transporter (Rattus norvegicus, UniProt P31652)
- Construct: synaptosomes of rat brain areas are freshly isolated; from tissue; host or cells: rat brain synaptosomes (P2 fraction) from marrow and pons
- Sequence (P31652 whole entry): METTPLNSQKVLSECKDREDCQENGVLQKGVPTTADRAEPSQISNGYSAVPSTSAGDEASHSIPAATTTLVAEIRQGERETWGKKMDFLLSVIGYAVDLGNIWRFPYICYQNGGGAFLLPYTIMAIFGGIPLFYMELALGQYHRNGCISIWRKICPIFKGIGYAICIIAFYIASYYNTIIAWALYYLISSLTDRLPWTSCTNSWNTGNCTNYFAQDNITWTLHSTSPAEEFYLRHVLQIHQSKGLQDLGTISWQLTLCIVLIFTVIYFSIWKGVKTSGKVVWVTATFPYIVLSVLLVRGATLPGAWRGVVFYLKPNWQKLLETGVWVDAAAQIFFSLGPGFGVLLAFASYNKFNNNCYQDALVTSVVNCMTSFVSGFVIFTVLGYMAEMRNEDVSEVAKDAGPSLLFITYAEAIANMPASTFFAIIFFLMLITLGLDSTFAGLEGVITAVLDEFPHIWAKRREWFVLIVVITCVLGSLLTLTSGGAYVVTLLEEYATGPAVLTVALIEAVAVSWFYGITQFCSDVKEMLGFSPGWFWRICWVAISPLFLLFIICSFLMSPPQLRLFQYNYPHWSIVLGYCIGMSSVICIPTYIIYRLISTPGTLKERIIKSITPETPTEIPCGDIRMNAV
- EXPERIMENTAL_DETAILS: Inhibition of 5-HT uptake in rat brain synaptosomes
- Type: biochemical
- CONDITION_NOTES: read-out: Uptake 5-HT, % inhibition; Table III; rat, 1 μM
MEASUREMENT_TYPE: inhibition at 1 µM (%)

MOLECULE	MEASUREMENT_TYPE	READOUT_VALUE
C=CCN1C(=O)C(C(C)C)NC12CCN(C(=O)c1ccccc1C)CC2 (stereo not drawn) [Example 325]	inhibition at 1 µM	32
CSc1ncccc1C(=O)N1CCC2(CC1)NC(Cc1ccccc1)C(=O)N2C (stereo not drawn) [Example 143]	inhibition at 1 µM	42
CC(C)CC1NC2(CCN(C(=O)c3ccc4nonc4c3)CC2)N(Cc2c(Cl)cccc2Cl)C1=O (stereo not drawn) [Example 275]	inhibition at 1 µM	33
CSCCC1NC2(CCN(C(=O)c3ccccn3)CC2)N(Cc2ccccc2F)C1=O (stereo not drawn) [Example 170]	inhibition at 1 µM	46
COc1ccc(CC(=O)N2CCC3(CC2)NC(Cc2ccccc2)C(=O)N3C)cc1 (stereo not drawn) [Example 176]	inhibition at 1 µM	37
COc1ccc(CC(=O)N2CCC3(CC2)NCC(=O)N3Cc2ccccc2F)cc1 [Example 320]	inhibition at 1 µM	38

* * *

In this section, each of the compounds is paired with its reported Uptake (NA), rat, 10 μM, % inhibition.
- Test system: NA transporter
- EXPERIMENTAL_DETAILS: Inhibition of noradrenaline uptake in rat brain synaptosomes
- Type: biochemical
- CONDITION_NOTES: Table III
MEASUREMENT_TYPE: Uptake (NA), rat, 10 μM, % inhibition (%)

COMPOUND	READOUT_VALUE
CC(C)CC1NC2(CCN(C(=O)COCc3ccccc3)CC2)NC1=O (stereo not shown)	30
CCSc1ncccc1C(=O)N1CCC2(CC1)NC(Cc1ccccc1)C(=O)N2C (stereo not shown)	33
CN(C)c1cccc(C(=O)N2CCC3(CC2)NC(Cc2ccccc2)C(=O)N3Cc2ccccc2)c1 (stereo not shown)	42
COc1cc(OC)cc(C(=O)N2CCC3(CC2)NC(=O)C(CC(C)C)N3)c1 (stereo not shown)	30

* * *

In this section, each of the compounds is paired with its reported BTX inhibition.
- Tested on: batrachotoxin (BTX) binding site of the sodium channel
- EXPERIMENTAL_DETAILS: Affinity to the batrachotoxin (BTX) binding site of the sodium channel
- CONDITION_NOTES: Table II; rat cerebrocortex synaptosomes; test concentration not given

COMPOUND	BTX inhibition
CCC(CC)C(=O)N1CCC2(CC1)N[C@@H](Cc1ccccc1)C(=O)N2Cc1ccccc1.Cl [Example 25]	47
Cl.O=C(c1ccc(F)cc1)N1CCC2(CC1)N[C@@H](Cc1ccccc1)C(=O)N2Cc1ccccc1 [Example 62]	48
Cl.O=C1NC2(CCN(C(=O)c3ccc(Cl)cc3)CC2)N[C@H]1Cc1ccccc1 (racemic) [Example 10]	53
